The values you see were collected from patent US10087178B2.

# System: HIV-1 NL4-3 strain
# Procedure details: Evaluation of antiviral activity: acute infection system of MT-4 cell with HIV-1 NL4-3 strain
# Assay type: cell-based
# Assay conditions: Human immunodeficiency virus 1, NL43, MT4, 120 h, MT-4 cells infected with HIV-1 NL4-3 strain (MOI 0.05), cultured 5 days, Cell Titer-Glo; read-out: antiviral activity (EC50)
Where a name gives a salt, the structure may show the parent alone.
Value type: pEC50
Would you please state pEC50, meaning minus log10 of the concentration in mol/L, as a bare number?

Field: example entries. Status: answers known.
• CC(C)N1C[C@]2(C[C@@H](OS(C)(=O)=O)C2)n2cc(C(=O)NCc3ccc(F)cc3F)c(=O)c(O)c2C1=O [Example S34, methanesulfonate hydrochloride] = 8.24
• COC[C@H]1C[C@@]2(CN(C)C(=O)c3c(O)c(=O)c(C(=O)NCc4cccc(Cl)c4F)cn32)C1 [Example 27] = 8.82
• CC(C)N1C[C@]2(C[C@@H](CO)C2)n2cc(C(=O)NCc3ccc(F)cc3F)c(=O)c(O)c2C1=O [Example S24, hydrobromide] = 7.80
• CCOC[C@H]1C[C@@]12Cn1cc(C(=O)NCc3ccc(F)cc3F)c(=O)c(O)c1C(=O)N2C(C)C [Example T43] = 8.28

Turning now to a further record.
Prompt: # query: pEC50 of entry CCN1C[C@]2(C[C@@H](COC)C2)n2cc(C(=O)NCc3cccc(Cl)c3F)c(=O)c(O)c2C1=O [Example S45, hydrochloride]
Response: 8.41

###

# Tested on: HIV-1 NL4-3 strain
# Procedure details: Evaluation of antiviral activity: acute infection system of MT-4 cell with HIV-1 NL4-3 strain
# Assay type: cell-based
# Assay conditions: Human immunodeficiency virus 1, NL43, MT4, 120 h, MT-4 cells infected with HIV-1 NL4-3 strain (MOI 0.05), cultured 5 days, Cell Titer-Glo; read-out: antiviral activity (EC50)
Counter-ions that a name gives are not always drawn.
Value type: pEC50
Would you please state pEC50, meaning minus log10 of the concentration in mol/L, as a bare number?

Field: example entries. Status: answers known.
• CCO[C@H]1C[C@@]2(CN(C)C(=O)c3c(O)c(=O)c(C(=O)NCc4cccc(Cl)c4F)cn32)C1 [Example S28, hydrochloride] = 8.44
• CC(C)O[C@H]1C[C@]2(CN(C)C(=O)c3c(O)c(=O)c(C(=O)NCc4cccc(Cl)c4F)cn32)C1 [Example S41, hydrochloride] = 8.46
• CNC(=O)[C@H]1C[C@]2(CN(C(C)C)C(=O)c3c(O)c(=O)c(C(=O)NCc4ccc(F)cc4F)cn32)C1 [Example S30, hydrochloride] = 6.77
• CO[C@H]1C[C@]2(CN(C)C(=O)c3c(OC(=O)C(C)C)c(=O)c(C(=O)NCc4cccc(Cl)c4F)cn32)C1 = 9.05
• CN1C[C@]2(C[C@H](O)C2)n2cc(C(=O)NCc3cccc(Cl)c3F)c(=O)c(O)c2C1=O [Example S27, hydrochloride] = 7.85
• CCOC[C@H]1C[C@@]12Cn1cc(C(=O)NCc3cccc(Cl)c3F)c(=O)c(O)c1C(=O)N2CC = 8.36
• CC(C)N1C(=O)c2c(O)c(=O)c(C(=O)NCc3ccc(F)cc3F)cn2C[C@@]12C[C@@H]2CO = 8.43
• CCCO[C@H]1C[C@]2(CN(C)C(=O)c3c(O)c(=O)c(C(=O)NCc4cccc(Cl)c4F)cn32)C1 [Example S43, hydrochloride] = 8.33
• CN(C)C(=O)[C@H]1C[C@@]12CN(C1CC1)C(=O)c1c(O)c(=O)c(C(=O)NCc3cccc(Cl)c3F)cn12 = 8.48
• CO[C@H]1C[C@]2(CN(C)C(=O)c3c(OC(C)=O)c(=O)c(C(=O)NCc4cccc(Cl)c4F)cn32)C1 = 8.55

Turning now to a further record.
Prompt: # query: pEC50 of entry CCN1C[C@]2(C[C@H](COC)C2)n2cc(C(=O)NCc3cccc(Cl)c3F)c(=O)c(O)c2C1=O [Example S47, hydrochloride]
Response: 8.46
